# target-of-assay: Neurogenic locus notch homolog protein 2 (Homo sapiens)
# experiment: Notch2 binders on small-molecule microarrays, primary screen, biochemical, small-molecule microarray, 635 nm fluorescence, stem cell growth factors (AID 1073)
# protocol-conditions: Notch2 binding, higher = more signal
Attribute: composite z-score
value-kind: composite z-score

• COc1ccc([Si](C)(C)[C@@H]2[C@@H](CCO)O[C@]3(C(=O)N(Cc4ccccc4)c4ccc(N5C(=O)c6ccccc6Oc6ccccc65)cc43)[C@H]2C)cc1 = -0.236
• CC(C)C[C@@H]1NC(=O)[C@@H]2C[C@H](C(=O)O)[C@H](c3ccc(O)cc3)N2C1=O = 0.529
• COc1cccc(OC)c1C(=O)O[C@H]1[C@@H]2OC(=O)[C@H](Cc3cccc(Br)c3)C/C=C/C[C@@H](Cc3cccc(Br)c3)C(=O)O[C@H]2[C@@H](OC)O[C@@H]1CO = 0.194

###

# target-of-assay: NADPH oxidase 5 (Homo sapiens)
# experiment: NOX5-dependent H2O2 signal modulators, primary screen, NOX inhibitor project, cell-based, HEK293-NOX5, Amplex Red fluorescence (AID 1161)
# protocol-conditions: HEK293-NOX5, ionomycin, 45 min, higher = more signal
Each entry belongs to exactly one class, chosen by where its z-score falls: lower bin (below -1), middle bin (-1 to below 0.6), upper bin (0.6 or more)

- C=C(/C(=C/C[C@H](OC(=O)c1ccncc1)c1ccccc1OCCO)c1cc(C(=O)OC)ccc1OC)C(C)C: lower bin
- COc1ccc([Si](C)(C)[C@H]2[C@H](CCn3cc([C@H](O)c4ccccc4)nn3)O[C@@]3(C(=O)N(C)c4c(Br)cc(C)cc43)[C@@H]2C)cc1: middle bin
- COCCOC(=O)N1C(=O)[C@@]2(c3ccccc31)[C@H](c1ccc(OCCO)cc1)N1[C@H](c3ccccc3)[C@H](c3ccccc3)OC(=O)[C@H]1[C@@H]2C(=O)N1CCN(c2ncccn2)CC1: upper bin
- COC(=O)C1(CC(C)C)C=C2C(=C(C(C)C)C(=O)C2C)CN1 (stereo not given): lower bin
- COCCOC(=O)N1C(=O)[C@@]2(c3cc(C#CCCO)ccc31)[C@H](c1ccc(O)cc1)N1[C@H](c3ccccc3)[C@H](c3ccccc3)OC(=O)[C@H]1[C@@H]2C(=O)N1CCc2cc(OC)c(OC)cc2C1: upper bin
- CC(C)(C)OC(=O)CC[C@]1(C(N)=O)N=C(c2ccc(OCCCO)cc2)O[C@H]1c1ccccc1CN=[N+]=[N-]: upper bin
- CN(C)CCCCNC(=O)[C@H]1C[C@H]2C(=O)N[C@@H](Cc3ccccc3)C(=O)N2[C@H]1c1cccc(OCCO)c1: upper bin
- C=C(CCCC)C(=O)CC[C@H](OC(C)=O)c1ccccc1OCCO: lower bin
- CCCC[C@H]1OB(O)C[C@H]2C1=C(C)C[C@H]1C(=O)C=CC(=O)[C@H]12: lower bin
- CCCCC(O)C1C=CC2C(=O)NC(=O)C2N1Nc1ccc(Cl)cc1Cl (stereo not given): lower bin
- Cc1ccc(S[C@]2(C(=O)NCC(F)(F)F)CC(=O)N(C3CCCCC3)[C@@H]2c2ccc(CO)cc2)cc1: middle bin
- COC(=O)[C@]1(CO)N=C(c2ccc(OCCCO)cc2)O[C@@H]1c1ccccc1CN=[N+]=[N-]: middle bin
- COc1cc(OC)c(C(O)C2C=CC3C(=O)N(c4ccccc4)C(=O)C3N2Nc2ccccc2F)cc1Br (stereo not given): lower bin
- C=CC(CO)NC(=O)OCC1c2ccccc2-c2ccccc21 (stereo not given): middle bin
- CCOC(=O)C[C@H]1[C@H](OC(=O)c2ccc(C(=O)c3ccccc3)cc2)[C@@H](NC(=O)c2ccc3ccccc3c2)c2cc(OCCCO)ccc2N1C(=O)c1ccc2ccccc2n1: upper bin
- NCCCC[C@@H]1NC(=O)[C@H]2C[C@@H](C(=O)NCc3ccc(F)cc3)[C@@H](c3cccc(OCCO)c3)N2C1=O: middle bin
- CC(C)C[C@H]1NC(=O)[C@@H](C)NC(=O)[C@@]23C(=O)N[C@@H](Cc4ccccc4)C2[C@H](C)[C@@]2(C)O[C@H]2C3/C=C/C/C=C\CNC1=O (stereo not given in full): middle bin
- C=C(COC)/C(=C/C[C@H](OC(=O)c1ccncc1)c1cccc(OCCO)c1)c1cnc2ccccc2c1: middle bin
- COC(=O)[C@@H]1N=C(c2ccc(OCCCO)cc2)O[C@@H]1c1ccccc1CN=[N+]=[N-]: middle bin
- CC#CCO[Si](C#CCCCCCC)(C(C)C)C(C)C: lower bin
- NC(=O)[C@@]1(CCS(=O)(=O)c2ccccc2)COC(c2ccc(OCCCO)cc2)=N1: middle bin
- [N-]=[N+]=NCc1ccccc1C[C@]1(C(=O)NCc2ccccc2)N=C(c2ccc(OCCCO)cc2)O[C@H]1c1ccccc1CN=[N+]=[N-]: middle bin
- O=C1N(Cc2ccccc2)c2ccccc2[C@H]2OC(c3ccc(OCCCO)cc3)=N[C@@]12Cc1ccccc1: lower bin
- COc1cccc(OC)c1C(=O)O[C@H]1[C@@H]2OC(=O)[C@H](Cc3cccc(Br)c3)C/C=C/C[C@@H](Cc3cccc(Br)c3)C(=O)O[C@H]2[C@@H](OC)O[C@@H]1CO: upper bin
- CN(C)CCCC[C@@H]1NC(=O)[C@@H]2C[C@H](C(=O)NCc3ccc(F)cc3)[C@H](c3ccc(O)cc3)N2C1=O: upper bin
- C=CCNC(=O)[C@@H]1[C@H]2C(=O)O[C@H](c3ccccc3)[C@H](c3ccccc3)N2[C@H](c2ccc(O)cc2)[C@@]12C(=O)Nc1ccc(C#CC3(O)CCCCCC3)cc12: upper bin
- O=C1NC(=O)C2C1C=CC(C(O)c1ccc(F)cc1)N2Nc1ccccn1 (stereo not given): lower bin
- COC(=O)[C@@]1(Cc2ccccc2)[C@@H]2[C@@H](CC(=O)[C@H]2CC(=O)C(=O)N(C)C)CN1C(=O)c1ccccc1: middle bin

###

# experiment: basal HepG2 mitochondrial membrane potential changes, profiling panel, cell-based, JC-1 fluorescence, 24 h, 100 nL compound (AID 1167); further: test concentration not given here
# protocol-conditions: higher = more signal
# binarize z-score: threshold -0.2 inclusive, high side true, low side false

• COCCOC(=O)N1C(=O)[C@@]2(c3cc(C#CC4(O)CCCCCC4)ccc31)[C@H](C(=O)NC[C@H](O)c1ccccc1)[C@H]1C(=O)O[C@H](c3ccccc3)[C@H](c3ccccc3)N1[C@@H]2c1ccc(O)cc1 = false
• [N-]=[N+]=NCc1ccccc1C[C@]1(C(=O)N2CCOCC2)N=C(c2ccc(OCCCO)cc2)O[C@H]1c1ccccc1CN=[N+]=[N-] = true
• CCOC(=O)C[C@H]1[C@H](OC(=O)c2cc3ccccc3oc2=O)[C@@H](NC(=O)C2CCCCC2)c2cc(OCCCO)ccc2N1C(=O)Cc1ccc(OC)cc1 = true
• COCCOC(=O)N1C(=O)[C@@]2(c3cc(C#CCC(C(=O)OC)C(=O)OC)ccc31)[C@H](c1ccc(OCCO)cc1)N1[C@H](c3ccccc3)[C@H](c3ccccc3)OC(=O)[C@H]1[C@@H]2C(=O)N1CCCCCCC1 = true
• O=C1C2C=CC(C(O)c3cccc(O)c3)N(Nc3ccccc3F)C2C(=O)N1c1ccccc1 (configuration not stated) = false
• COc1ccc([Si](C)(C)[C@H]2[C@H](CCO)O[C@@]3(C(=O)N(Cc4ccc(N5CCOC5=O)cc4)c4ccccc43)[C@@H]2C)cc1 = true
• Cc1ccc(F)cc1S(=O)(=O)N[C@@H]1CCN(Cc2ccc3c(c2)OCO3)C1 = true

###

# experiment: E. coli acrAB mutant growth effects, primary screen, E. coli filamentation inducers, strain DRC39, OD650, 48 h (AID 1179);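 further: screen aims at cell division blockers that make cells filament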
# protocol-conditions: E. coli DRC39 delta-acrAB growth, higher = more signal, called active from +8 up or from −8 down
value-kind: z-score

• Cc1ccccc1C(O)C1C=CC2C(=O)N(c3ccccc3)C(=O)C2N1Nc1ccccc1F (centres undefined) = -0.542
• CC1CC/C=C\[C@H]2OC34C=CCN(c5ccc(Cl)cc5)C(=O)[C@H]3N(CCCO)C(=O)[C@]4(C)C2C(=O)O1 (some centres undefined) = -0.801
• O=C1C2C=CC(C(O)c3ccc([N+](=O)[O-])cc3)N(Nc3ccccc3)C2C(=O)N1c1ccccc1 (centres undefined) = -0.253
• COCCOC(=O)N1C(=O)[C@@]2(c3cc(C#CC4(O)CCCCCC4)ccc31)[C@H](c1ccc(OCCO)cc1)N1[C@H](c3ccccc3)[C@H](c3ccccc3)OC(=O)[C@H]1[C@@H]2C(=O)N1CCCCCCC1 = -1.8

###

Attribute: composite z-score
# experiment: small-molecule binders of probe aNOTCH3, primary screen, biochemical, small-molecule microarray, 635/667 nm fluorescence (AID 1120);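 further: probe is a biotin-tagged antibody raised against NOTCH3 rather than NOTCH3 protein; score merges spot fluorescence near 667 nm with spot signal to noise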
# protocol-conditions: higher = more signal
value-kind: composite z-score

• CC(C)C[C@H]1NC(=O)[C@@H](C)NC(=O)[C@@]23C(=O)N[C@@H](Cc4ccccc4)C2[C@H](C)[C@@]2(C)O[C@H]2C3/C=C/C/C=C\CNC1=O (some centres not stated) = -0.189
• C[C@@H](OCc1ccccc1)C1NC(=O)[C@@]23C(=O)N[C@@H](Cc4ccccc4)C2[C@H](C)[C@@]2(C)O[C@H]2C3/C=C/C/C=C\CNC(=O)[C@H](Cc2ccccc2)NC1=O (some centres not stated) = -0.0026
• NCCCC[C@@H]1NC(=O)[C@H]2C[C@@H](C(=O)NCc3ccc(F)cc3)[C@@H](c3ccc(O)cc3)N2C1=O = 0.125
• COc1ccccc1CN1C(=O)c2ccccc2[C@](Cc2ccccc2I)(C(=O)NCCCN(C)C)[C@@H]1c1ccc(CO)cc1 = -0.243
• CC(=O)c1ccc(C(O)C2C=CC3C(=O)N(C)C(=O)C3N2NC(=O)OC(C)(C)C)cc1 (configuration not stated) = 0.103
• C/C=C/CN(C(=O)C#Cc1ccccc1)[C@H](CO[Si](C)(C)C(C)(C)C)c1ccccc1 = -0.384
• COC(=O)[C@@]1(Cc2ccc(F)cc2)[C@H]2c3cc(C(=O)N(C)C)n(CCn4cc([N+](=O)[O-])nc4C)c3C[C@H]2CN1C(=O)c1ccccc1 = 0.0203
• COCCOC(=O)N1C(=O)[C@@]2(c3cc(C#CC4=CCCCC4)ccc31)[C@H](C(=O)N1CCN(c3ncccn3)CC1)[C@H]1C(=O)O[C@H](c3ccccc3)[C@H](c3ccccc3)N1[C@@H]2c1ccccc1OCCO = 0.0433
• COC(=O)C1=CC(CCCO)=CC(C2CC2)N(Cc2cccc(OC(F)(F)F)c2)C=C1C(=O)OC (configuration not stated) = -0.0039
• COc1cc2c(cc1O)C(c1ccc(CN3CCCC3)cc1)N(Cc1ccc([N+](=O)[O-])o1)CC2 (configuration not stated) = 0.0469
• COc1ccc(NC(=O)O[C@H]2[C@H](OC(=O)Nc3ccc4c(c3)OCO4)[C@H](OC(=O)Nc3ccc4c(c3)OCO4)[C@@H](OC)O[C@@H]2CO)cc1 = 0.037
• COC(=O)C1(CC(C)C)C=C2C(=C(C(C)C)C(=O)C2C)CN1 (configuration not stated) = -0.0043
